# System: MS2 coat protein
# assay-info: apparent KD of MS2 coat protein; designed switch direction (-1 OFF switch, 1 ON switch): 1; higher = weaker reporter binding
# experimental-conditions: input ligand: FMN 200 uM
Record True whenever apparent KD of MS2 coat protein is at 30 nM or higher; record False when lower.

**Q:** Tell me whether apparent KD of MS2 coat protein is at least 30 nM here: UAAAUGAAGUAAGGAUAUACAUGAGGAUCACUCGUAGAAGGUACUAUACAUGAGGAUCACCCAUGUGCCGGUCAGAAGACUGGA [Mat - Same State NG 1 - JL mod - D6] (Eterna round: R96, puzzle: Same State NG 1)
**A:** True

**Q:** Tell me whether apparent KD of MS2 coat protein is at least 30 nM here: UGGUACAUGCGAGGAUAUGGGUUGAUGACAUGAGGAUCACCCAUGUUAAAUAUGCCGAGAGGCACCUAGAAGGCGCAUGUACCU [MOD2 of JL SSNG1 3.99] (Eterna round: R96, puzzle: Same State NG 2)
**A:** False

**Q:** Tell me whether apparent KD of MS2 coat protein is at least 30 nM here: GUGGAGAAUUAAGGAUAUCGAGUCAAGAUGUUAAACAUGAGGAUCACCCAUGUGGGUUGCGGUAUCGAGAAGGUAAAUUACGGG [salish99_SSNG2_r04_504] (Eterna round: R96, puzzle: Same State NG 2)
**A:** False

**Q:** Tell me whether apparent KD of MS2 coat protein is at least 30 nM here: UACAUGAGGAUCACCCAUGUAGUCCAUGCACCGGACCGAAGCGAGGAUAUGGUCUGCAUCGGUGGCCAGAAGGCGCUUCCAGAA [Eternabot solution 26] (Eterna round: R96, puzzle: Same State NG 3)
**A:** False

**Q:** Tell me whether apparent KD of MS2 coat protein is at least 30 nM here: GCACAUGAGGAUCACCCAUGUGCGCUUGAUUGUCCAAGCGCACAGGAUAUACCUCCAAAUGGGAGGUAGAAGGGUGAAAAGAAA [Ravema] (Eterna round: R96, puzzle: Same State NG 3)
**A:** True

**Q:** Tell me whether apparent KD of MS2 coat protein is at least 30 nM here: AAUCAACGCCGAGGAUAUCGGCCUACAUGAGGAUCACCCAUGUUGGGACAUAAAUUAAUCUCGGCUGAGAAGGCGGGAGUUGAC [Eternabot solution 38] (Eterna round: R96, puzzle: Same State NG 2)
**A:** False

**Q:** Tell me whether apparent KD of MS2 coat protein is at least 30 nM here: GGGAGACCUCAAGGAUAUGCUACCGUUUCGGUAGCAGAAGGUGAUCACAUGAGGAUCACCCAUGUAUGCAUGCGUGAGCGUGCU [JL SSNG1 3.58] (Eterna round: R96, puzzle: Same State NG 1)
**A:** True

====

# key: entry, value: apparent KD of K4 kissing-loop reporter
# System: K4 kissing-loop RNA reporter;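 further: bound reporter read as fluorescence of individual clusters on recovered sequencing chips by microscopy, with normalized cluster intensities fitted with a binding model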
# assay-info: apparent KD of K4 kissing-loop reporter; higher = weaker reporter binding
# experimental-conditions: Eterna round: R107; input ligand: tryptophan 2.4 mM
Only the number, expressed in µM, is required.

CAUAGGAAACUAUGUUUCUCUCUUACUGAAGGAGCGCGUGAAAACGCAGGUAGGUCGCAGAAUUUGAGAGUGAUGUUCUCAUUAA [Ex Arginine A K4 14]	0.127
CGUUUAUAGCAGGAUACCAGUACCCAUAAAGUACGUUAAUAGUAGAGUGAUGUUCUAAAGUACCCUUGGCAGCUUCGAGUGAGUG [ExTheophylB.R]	0.054
AACUGUCAAGGACAACAUUACUGCAGUGAUACCAGCAUCGAAAGAUGCCCUUGGCAGCACCAACUUGCAGUGAUGUUGCAAGUAA [BrourdMod 5 - Jieux - Exclusion - Theophylline A]	0.22
AGUGAUGUGGGAAGGAGCGGUAUAUGAGUUCAGUGAUGUUGAAGUGAUGCUGUAGUGUUGUGCCAGGUAGGUCGCCUAGAUGUUA [KL-XARG B25]	0.233
GUGCAGUGAUGUUGCACGAGGAAAGACGAUACCAGCCGUAAAUAAGGCCCUUGGCAGCGUAGGCUAGCAUAAAGCAUGCUAGUCC [Edeson]	0.078
AGUACGGACACGGCCGCCACUCAGAAGAAGACAGUAGUGAUGUUACUGAUGGUGAGAAUAAUAAAGAGGACCGGGUGUCGUGCAA [#05 K4 Tryptophan B Same State]	0.171

**Q:** Request the reported apparent KD of K4 kissing-loop reporter associated with GCAGUGAUGUUGCGGAUGUACAGUGGCGUGCGAGGACCGGUACGGCCGCCACUCGUACAGACCAAGCUAAUACAUCGAUAGGUGA [whbob_SS_Tryp_A_m3]
**A:** 0.218

**Q:** Request the reported apparent KD of K4 kissing-loop reporter associated with CCGGCCCGGCCGGAUACCAGUGCGCCGCAGGGAACGGCGGGCCCAGAGUGAUGUUCGGGACACCCUUGGCAGCCGCCUGGGUCGC [#2 Same State - Theophylline B Attempt #27 (HarryS)]
**A:** 0.245

**Q:** Request the reported apparent KD of K4 kissing-loop reporter associated with AAACAUCACUGGGAGUGAUGUUCUCAGUGACGAGGACCGGUACGGCCGCCACUCGCGAGAGAUAUAGUCAAGUAAUGACUGCAUU [Excl Tryptophan A V9]
**A:** 0.413

**Q:** Request the reported apparent KD of K4 kissing-loop reporter associated with CAUACGCAUGGAGGAUAUGAGAUUACUCAUGUCAUUUAAUAUUCUCAGUGAUGUUGAGAUUUUGGCUCAGAAGGCCAUGUGUAUG [Ex FMN B 18]
**A:** 0.543
